# SYSTEM: Eg5 motor protein (Homo sapiens)
# Construct: Eg5 motor domain (amino acids 1-368) was cloned into pET22b; His-tag (C); made in house; host or cells: Escherichia coli BL21 (DE3)
# Sequence (P52732 1-368): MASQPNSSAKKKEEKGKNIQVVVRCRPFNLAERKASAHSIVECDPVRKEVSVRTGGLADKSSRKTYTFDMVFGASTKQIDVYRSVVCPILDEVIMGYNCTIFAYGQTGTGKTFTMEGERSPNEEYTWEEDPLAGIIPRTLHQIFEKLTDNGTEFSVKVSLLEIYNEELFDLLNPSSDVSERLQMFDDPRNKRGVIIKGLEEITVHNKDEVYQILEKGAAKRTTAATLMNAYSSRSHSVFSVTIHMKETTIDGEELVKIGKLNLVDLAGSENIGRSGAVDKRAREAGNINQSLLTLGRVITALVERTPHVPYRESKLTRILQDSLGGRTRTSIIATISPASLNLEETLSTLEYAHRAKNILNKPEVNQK
# ASSAY_REMARKS: microtubule-activated Eg5 motor protein ATPase assay (malachite green, OD630)
# Assay type: biochemical
# CONDITIONS: compound 30.3 uM
VALUE_TYPE: OD630 Value Mean

a. CCOC(=O)c1[nH]c(C2NC(=O)NC(C)=C2C(=O)Nc2ccccc2C)c(C(=O)OC)c1C (stereo not drawn) [D4]
b. COC(=O)c1[nH]c(C2NC(=S)NC(C)=C2C(=O)c2ccccc2)c(C(=O)OC)c1C (stereo not drawn) [D14]
Ask: Sorting ascending by OD630 Value Mean, which comes first: a or b ? API: response body contains the label of the selected item.
Result: a

====

# System: Caco-2 cell line
# ASSAY_REMARKS: Cytotoxicity MTS assay, Caco-2 cell line
# Type: cell-based
# CONDITIONS: 50μM; first assay; Caco-2 cell line
# key: entry, value: OD490 Mean
// no unit string in output, number only

In the examples that follow, each entry is paired with its recorded OD490 Mean.
Ask: // query OD490 Mean value for entry CCOC(=O)c1c(C2NC(=O)NC(C)=C2C(=O)Nc2ccccc2OC)[nH]c(C(=O)OC)c1C (stereo not shown) [D1]
Result: 0.5045

Ask: One more compound: CCOC(=O)c1[nH]c(C2NC(=O)NC(C)=C2C(=O)Nc2ccccc2OC)c(C(=O)OC)c1C (stereo not shown) [D3]
Result: 0.7773

Ask: One more compound: CCOC(=O)C1=C(C)NC(=S)NC1c1cccc(O)c1 (stereo not shown) [Monastrol, monastrol, reference compound]
Result: 0.4955

Ask: One more compound: CCOc1ccccc1C1NC(=S)NC(C)=C1C(=O)Nc1ccc(Cl)cc1 (stereo not shown) [C9]
Result: 0.4407

Ask: One more compound: CCOC(=O)c1c(C2NC(=O)NC(C)=C2C(=O)Nc2ccccc2C)[nH]c(C(=O)OC)c1C (stereo not shown) [D2]
Result: 0.5907

Continuing:
Ask: // query OD490 Mean value for entry CCOC(=O)c1[nH]c(C2NC(=O)NC(C)=C2C(=O)Nc2ccc(Cl)cc2)c(C(=O)OCC)c1C (stereo not shown) [D7]
Result: 0.4389

Ask: One more compound: CCOC(=O)c1[nH]c(C2NC(=S)NC(C)=C2C(=O)OC)c(C(=O)OCC)c1C (stereo not shown) [D12]
Result: 0.5705

Ask: One more compound: CCOC(=O)c1c(C2NC(=O)NC(C)=C2C(=O)Nc2ccccc2)[nH]c(C(=O)OC)c1C (stereo not shown) [D10]
Result: 0.4403

Ask: One more compound: COC(=O)c1[nH]c(C2NC(=S)NC(C)=C2C(=O)c2ccccc2)c(C(=O)OC)c1C (stereo not shown) [D14]
Result: 0.5128

Ask: One more compound: CCOC(=O)c1[nH]c(C2NC(=O)NC(C)=C2C(=O)Nc2ccccc2C)c(C(=O)OC)c1C (stereo not shown) [D4]
Result: 0.5039

====

# Test system: Caco-2 cell line
# ASSAY_REMARKS: Cytotoxicity MTS assay, Caco-2 cell line
# Format: cell-based
# CONDITIONS: 25μM; second assay; Caco-2 cell line
# Procedure: The positive compounds (IC50 < 100 μM) obtained from the primary Eg5 motor protein ATPase assay were tested for antiproliferative activity in vitro against Caco-2 cell line, Hela cell line, L929 cell line and T24 cell line by performing MTS assay. Cells were introduced into 96-well plates at a density of 1000 cells per well. After 24 h incubation, the cells were exposed with compounds at final concentrations ranging from 0.5 to 100 µM for 24 h. […]
# key: entry, value: OD490 Well 2
// no unit string in output, number only

Ask: // query OD490 Well 2 value for entry CCOC(=O)c1c(C2NC(=O)NC(C)=C2C(=O)Nc2ccccc2)[nH]c(C(=O)OC)c1C (centres unmarked) [D10]
Result: 0.5889

Ask: One more compound: CCOC(=O)c1c(C2NC(=O)NC(C)=C2C(=O)Nc2ccccc2C)[nH]c(C(=O)OC)c1C (centres unmarked) [D2]
Result: 0.7137

Ask: One more compound: CCOC(=O)c1[nH]c(C2NC(=O)NC(C)=C2C(=O)Nc2ccc(Cl)cc2)c(C(=O)OCC)c1C (centres unmarked) [D7]
Result: 0.4698

Continuing:
Ask: // query OD490 Well 2 value for entry CCOc1ccccc1C1NC(=S)NC(C)=C1C(=O)Nc1ccc(Cl)cc1 (centres unmarked) [C9]
Result: 0.5214

Ask: One more compound: CCOC(=O)c1[nH]c(C2NC(=S)NC(C)=C2C(=O)OC)c(C(=O)OCC)c1C (centres unmarked) [D12]
Result: 0.5145

====

# key: entry, value: OD490 Mean
# System: Caco-2 cell line
# ASSAY_REMARKS: Cytotoxicity MTS assay, Caco-2 cell line
# Assay type: cell-based
# CONDITIONS: 100μM; third assay; Caco-2 cell line
# Procedure: The positive compounds (IC50 < 100 μM) obtained from the primary Eg5 motor protein ATPase assay were tested for antiproliferative activity in vitro against Caco-2 cell line, Hela cell line, L929 cell line and T24 cell line by performing MTS assay. Cells were introduced into 96-well plates at a density of 1000 cells per well. After 24 h incubation, the cells were exposed with compounds at final concentrations ranging from 0.5 to 100 µM for 24 h. […]
// no unit string in output, number only

In the examples that follow, each entry is paired with its recorded OD490 Mean.
Ask: // query OD490 Mean value for entry CCOC(=O)C1=C(C)NC(=S)NC1c1cccc(O)c1 (stereo not shown) [Monastrol, monastrol, reference compound]
Result: 0.4670

Ask: One more compound: CCOC(=O)c1c(C2NC(=O)NC(C)=C2C(=O)Nc2ccccc2C)[nH]c(C(=O)OC)c1C (stereo not shown) [D2]
Result: 0.5185

Ask: One more compound: CCOc1ccccc1C1NC(=S)NC(C)=C1C(=O)Nc1ccc(Cl)cc1 (stereo not shown) [C9]
Result: 0.3309

Ask: One more compound: COC(=O)c1[nH]c(C2NC(=S)NC(C)=C2C(=O)c2ccccc2)c(C(=O)OC)c1C (stereo not shown) [D14]
Result: 0.4653

Ask: One more compound: CCOC(=O)c1[nH]c(C2NC(=O)NC(C)=C2C(=O)Nc2ccccc2OC)c(C(=O)OC)c1C (stereo not shown) [D3]
Result: 0.7231

Continuing:
Ask: // query OD490 Mean value for entry CCOC(=O)c1[nH]c(C2NC(=S)NC(C)=C2C(=O)OC)c(C(=O)OCC)c1C (stereo not shown) [D12]
Result: 0.4730

Ask: One more compound: CCOC(=O)c1[nH]c(C2NC(=O)NC(C)=C2C(=O)Nc2ccccc2C)c(C(=O)OC)c1C (stereo not shown) [D4]
Result: 0.4011

Ask: One more compound: CCOC(=O)c1c(C2NC(=O)NC(C)=C2C(=O)Nc2ccccc2)[nH]c(C(=O)OC)c1C (stereo not shown) [D10]
Result: 0.4349

Ask: One more compound: CCOC(=O)c1[nH]c(C2NC(=O)NC(C)=C2C(=O)Nc2ccc(Cl)cc2)c(C(=O)OCC)c1C (stereo not shown) [D7]
Result: 0.3973

Ask: One more compound: CCOC(=O)c1c(C2NC(=O)NC(C)=C2C(=O)Nc2ccccc2OC)[nH]c(C(=O)OC)c1C (stereo not shown) [D1]
Result: 0.4792

====

# System: L929 cell line
# ASSAY_REMARKS: Cytotoxicity MTS assay, L929 cell line
# Type: cell-based
# CONDITIONS: L929 cell line, 50μM, second assay
# key: entry, value: OD490 values, Well 1
// no unit string in output, number only

Ask: // query OD490 values, Well 1 value for entry COC(=O)c1[nH]c(C2NC(=S)NC(C)=C2C(=O)c2ccccc2)c(C(=O)OC)c1C (stereo not shown)
Result: 1.1241

Ask: One more compound: CCOC(=O)c1c(C2NC(=O)NC(C)=C2C(=O)Nc2ccccc2OC)[nH]c(C(=O)OC)c1C (stereo not shown) [D1]
Result: 1.4685

Ask: One more compound: CCOC(=O)c1[nH]c(C2NC(=S)NC(C)=C2C(=O)OC)c(C(=O)OCC)c1C (stereo not shown)
Result: 1.2147

Ask: One more compound: CCOC(=O)C1=C(C)NC(=S)NC1c1cccc(O)c1 (stereo not shown) [Monastrol, monastrol, reference compound]
Result: 1.3355

Ask: One more compound: CCOc1ccccc1C1NC(=S)NC(C)=C1C(=O)Nc1ccc(Cl)cc1 (stereo not shown)
Result: 1.2236

Continuing:
Ask: // query OD490 values, Well 1 value for entry CCOC(=O)c1[nH]c(C2NC(=O)NC(C)=C2C(=O)Nc2ccccc2C)c(C(=O)OC)c1C (stereo not shown)
Result: 1.3201

Ask: One more compound: CCOC(=O)c1[nH]c(C2NC(=O)NC(C)=C2C(=O)Nc2ccc(Cl)cc2)c(C(=O)OCC)c1C (stereo not shown)
Result: 1.3685
